Where do the numbers come from? From patent US20240131162A1.

target: T1, CD16A F158 (human, UniProt P08637 17-208, limits assumed); test: SPR (BIAcore), koff compared with wild-type Fc
T1 construct: construct not described
T1 sequence (P08637 17-208 limits assumed): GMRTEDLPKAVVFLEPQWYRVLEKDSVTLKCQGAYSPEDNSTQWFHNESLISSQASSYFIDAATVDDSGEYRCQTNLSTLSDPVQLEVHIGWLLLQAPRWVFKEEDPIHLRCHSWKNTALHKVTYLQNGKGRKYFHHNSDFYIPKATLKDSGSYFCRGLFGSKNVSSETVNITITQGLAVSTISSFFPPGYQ
Below: a set of entries, each annotated with reported WT koff/mutant koff.
Enter your answer as a number in ratio; do not include the unit.

Reference set, count: 3
>  <Binder>
Fc mutant 16: F243L R292P Y300L P396L (other, UniProt P01857-1 104-330, looked up, domain: Fc) DKTHTCPPCPAPELLGGPSVFLLPPKPKDTLMISRTPEVTCVVVDVSHEDPEVKFNWYVDGVEVHNAKTKPPEEQYNSTLRVVSVLTVLHQDWLNGKEYKCKVSNKALPAPIEKTISKAKGQPREPQVYTLPPSRDELTKNQVSLTCLVKGFYPSDIAVEWESNGQPENNYKTTPLVLDSDGSFFLYSKLTVDKSRWQQGNVFSCSVMHEALHNHYTQKSLSLSPGK

>  <Observation type>
WT koff/mutant koff

>  <Observed measurement>
5.6

$$$$
>  <Binder>
Fc mutant 13: F243L R292P V305I (other, UniProt P01857-1 104-330, looked up, domain: Fc) DKTHTCPPCPAPELLGGPSVFLLPPKPKDTLMISRTPEVTCVVVDVSHEDPEVKFNWYVDGVEVHNAKTKPPEEQYNSTYRVVSILTVLHQDWLNGKEYKCKVSNKALPAPIEKTISKAKGQPREPQVYTLPPSRDELTKNQVSLTCLVKGFYPSDIAVEWESNGQPENNYKTTPPVLDSDGSFFLYSKLTVDKSRWQQGNVFSCSVMHEALHNHYTQKSLSLSPGK

>  <Observation type>
WT koff/mutant koff

>  <Observed measurement>
1.4

$$$$
>  <Binder>
Fc mutant 17: F243L R292P V305I P396L (other, UniProt P01857-1 104-330, looked up, domain: Fc) DKTHTCPPCPAPELLGGPSVFLLPPKPKDTLMISRTPEVTCVVVDVSHEDPEVKFNWYVDGVEVHNAKTKPPEEQYNSTYRVVSILTVLHQDWLNGKEYKCKVSNKALPAPIEKTISKAKGQPREPQVYTLPPSRDELTKNQVSLTCLVKGFYPSDIAVEWESNGQPENNYKTTPLVLDSDGSFFLYSKLTVDKSRWQQGNVFSCSVMHEALHNHYTQKSLSLSPGK

>  <Observation type>
WT koff/mutant koff

>  <Observed measurement>
2.3

$$$$

QUERY: WT koff/mutant koff lookup needed for Fc mutant 18: F243L R292P Y300L V305I P396L (other, UniProt P01857-1 104-330, looked up, domain: Fc; Same substitutions as the Fc of ch4D5-FcMT1) DKTHTCPPCPAPELLGGPSVFLLPPKPKDTLMISRTPEVTCVVVDVSHEDPEVKFNWYVDGVEVHNAKTKPPEEQYNSTLRVVSILTVLHQDWLNGKEYKCKVSNKALPAPIEKTISKAKGQPREPQVYTLPPSRDELTKNQVSLTCLVKGFYPSDIAVEWESNGQPENNYKTTPLVLDSDGSFFLYSKLTVDKSRWQQGNVFSCSVMHEALHNHYTQKSLSLSPGK , thanks.
RESULT: 8.3
